Test system: Bacteroides stercoris
Procedure Text: growth AUC relative to DMSO control (median of replicates) (fraction); higher = more growth (less inhibition), active = hit call of the paper
Condition Description: 20 µM; 24 h
Value Type: growth AUC
Give the figure by itself; no unit, no explanation.

Take a look at these entries with their results.
INSERT INTO assay_data (compound, value_type, number) VALUES
  ('c1ccc2cc3ccccc3cc2c1', 'growth AUC', 1.01),
  ('CN(C)C(=O)Nc1cc(C(C)(C)C)on1', 'growth AUC', 0.998);

Exam item: // growth AUC lookup, key: `COc1nc(N)nc(C(F)(F)F)n1`
Marked response: 0.988

* * *

Tested on: Bacteroides thetaiotaomicron
Procedure Text: growth AUC relative to DMSO control (median of replicates) (fraction); higher = more growth (less inhibition), active = hit call of the paper
Condition Description: 20 µM; 24 h
Classification field: enter 1 (yes) for growth AUC values not below 1, 0 (no) for values below it.

Completed entries (count: 3):
INSERT INTO assay_data (molecule, assigned_class) VALUES
  ('O=C(O)C1(C(=O)Nc2ccc(Cl)cc2Cl)CC1', '1 (yes)'),
  ('CCC(C)c1cc([N+](=O)[O-])cc([N+](=O)[O-])c1OC(=O)OC(C)C (stereo not given)', '0 (no)'),
  ('CS(=O)(=O)c1ccc(C(=O)C2C(=O)C(O)CC(O)C2=O)c(Cl)c1COCC(F)(F)F (stereo not given)', '0 (no)');

Kindly review the next molecule as well.
Exam item: # bool: growth AUC of `CCCCOC(=O)[C@@H](C)Oc1ccc(Oc2ccc(C(F)(F)F)cn2)cc1` >= 1
Marked response: 0 (no)

* * *

Tested on: Lactobacillus paracasei
Procedure Text: growth AUC relative to DMSO control (median of replicates) (fraction); higher = more growth (less inhibition), active = hit call of the paper
Condition Description: 20 µM; 24 h
Value Type: growth AUC
Give the figure by itself; no unit, no explanation.

Exam item: Notebook entry, Lactobacillus paracasei assay: growth AUC of `CC(C)CCCCCCc1ccc(O)cc1` = ?
Marked response: 1.03

Exam item: Notebook entry, Lactobacillus paracasei assay: growth AUC of `CCNc1nc(NCC)nc(OC)n1` = ?
Marked response: 0.977

Exam item: Notebook entry, Lactobacillus paracasei assay: growth AUC of `CN(C)C(=O)Nc1ccc(Cl)c(Cl)c1` = ?
Marked response: 0.971

Exam item: Notebook entry, Lactobacillus paracasei assay: growth AUC of `COc1cccc(N(C)C(=S)Oc2cccc(C(C)(C)C)c2)n1` = ?
Marked response: 0.707

Exam item: Notebook entry, Lactobacillus paracasei assay: growth AUC of `CNC(=O)/C(=N/OC)c1ccccc1COc1cc(C(=O)O)ccc1C` = ?
Marked response: 0.98

* * *

System: Collinsella aerofaciens
Procedure Text: growth AUC relative to DMSO control (median of replicates) (fraction); higher = more growth (less inhibition), active = hit call of the paper
Condition Description: 20 µM; 24 h
Value Type: growth AUC
Give the figure by itself; no unit, no explanation.

Take a look at these entries with their results.
INSERT INTO results (molecule, value_type, number) VALUES
  ('COC(=O)C(C)Oc1cc(Cl)c(Cl)cc1Cl (stereo not drawn)', 'growth AUC', 0.982),
  ('CN(C)C=O', 'growth AUC', 1.01);

Exam item: // growth AUC lookup, key: `CCSc1nc(NC(C)C)nc(NC(C)C)n1`
Marked response: 0.995

Hello, the source for this data is the supplement of paper PMC12669032, in case you need it.
